- Test system: 435261-313-R-J1-PDC complex spheroid viability
- assay: Anticancer human tumor 435261-313-R-J1-PDC patient-derived colon adenocarcinoma cell line growth inhibition [GQUAD]
- measurement context: curve of first compound; second compound 1 µM
pIC50: −log10 of the molar value.
metric: pIC50

Lab note: each compound below needs its pIC50 filled in.
1. C=CCn1c(=O)c2cnc(Nc3ccc(N4CCN(C)CC4)cc3)nc2n1-c1cccc(C(C)(C)O)n1 + CN(C)c1ccc(Nc2c3ccc(NC(=O)CCN4CCCC4)cc3nc3cc(NC(=O)CCN4CCCC4)ccc23)cc1
2. CCc1c2c(nc3ccc(O)cc13)-c1cc3c(c(=O)n1C2)COC(=O)[C@]3(O)CC + Cc1cnc(CNC(=O)c2c(=O)c3ccc(N4CCCN(C)CC4)nc3n3c2sc2ccccc23)cn1
3. CC(C)n1c(=O)n(C)c2cnc3cc(F)c(-c4ccc(OCCCN5CCCCC5)nc4)cc3c21 + CN(C)c1ccc(Nc2c3ccc(NC(=O)CCN4CCCC4)cc3nc3cc(NC(=O)CCN4CCCC4)ccc23)cc1
4. O=C(NO)c1cnc(N2CCN(S(=O)(=O)c3ccc4ccccc4c3)CC2)nc1 + Cc1[nH]c2ccc(F)cc2c1-c1nc2c3cccnc3c3ncccc3c2[nH]1
5. COc1ccc([C@@H](O)c2cc(-c3ncnc4cc(N5CCOCC5)ccc34)c(F)cc2Cl)nn1 + Cc1[nH]c2ccc(F)cc2c1-c1nc2c3cccnc3c3ncccc3c2[nH]1
6. Cc1[nH]c2ccccc2c1CCNCc1ccc(/C=C/C(=O)NO)cc1 + CN(C)c1ccc(Nc2c3ccc(NC(=O)CCN4CCCC4)cc3nc3cc(NC(=O)CCN4CCCC4)ccc23)cc1
7. CC1COCCN1c1cc(-c2ccnn2C)c2ccnc(-c3ccn[nH]3)c2n1 (stereo not given) + CN(C)c1ccc(Nc2c3ccc(NC(=O)CCN4CCCC4)cc3nc3cc(NC(=O)CCN4CCCC4)ccc23)cc1

["< 5.00", "> 9.00", 5.12, 6.27, 5.55, 7.21, 5.99]

###

Consider the following molecules; for each one, report its viability, T/C.
- Tested on: 435261-313-R-J1-PDC complex spheroid viability
- assay: Anticancer human tumor 435261-313-R-J1-PDC cell line growth inhibition [GQUAD];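 note: spheroids exposed to the agents for seven days before readout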;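 for viability, T/C: percent of vehicle control viability with DMSO wells as 100%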
- measurement context: second compound 3.16 µM; first compound 0.000999 µM; stronger effect = lower value
Give bare numbers, in %.

>>> recorded_value("CC[C@@]1(O)C(=O)OCc2c1cc1n(c2=O)Cc2cc3c(CN(C)C)c(O)ccc3nc2-1 + CN(C)c1ccc(Nc2c3ccc(NC(=O)CCN4CCCC4)cc3nc3cc(NC(=O)CCN4CCCC4)ccc23)cc1")
75.2
>>> recorded_value("Cn1ncnc1[C@H]1c2n[nH]c(=O)c3cc(F)cc(c23)N[C@@H]1c1ccc(F)cc1 + CN(C)c1ccc(Nc2c3ccc(NC(=O)CCN4CCCC4)cc3nc3cc(NC(=O)CCN4CCCC4)ccc23)cc1")
70.4

Now for a further molecule.
Entry Cn1ncnc1[C@H]1c2n[nH]c(=O)c3cc(F)cc(c23)N[C@@H]1c1ccc(F)cc1 + Cc1[nH]c2ccc(F)cc2c1-c1nc2c3cccnc3c3ncccc3c2[nH]1 has what viability, T/C?
43.7

###

- Test system: 435261-313-R-J1-PDC complex spheroid viability
- assay: Anticancer human tumor 435261-313-R-J1-PDC cell line growth inhibition [GQUAD]; active means viability on the fitted dose curve at most 10% of control; inactive means the rest;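 note: spheroids exposed to the agents for seven days before readout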
- measurement context: second compound 3.16 µM; first compound 1 µM
// classify into active, inactive

>>> assigned_class("COc1ccc([C@@H](O)c2cc(-c3ncnc4cc(N5CCOCC5)ccc34)c(F)cc2Cl)nn1 + Cc1cnc(CNC(=O)c2c(=O)c3ccc(N4CCCN(C)CC4)nc3n3c2sc2ccccc23)cn1")
"active"
>>> assigned_class("C=CC(=O)N1CCN(c2nc(=O)n(-c3c(C)ccnc3C(C)C)c3nc(-c4c(O)cccc4F)c(F)cc23)C(C)C1 (stereo not given) + Cc1cnc(CNC(=O)c2c(=O)c3ccc(N4CCCN(C)CC4)nc3n3c2sc2ccccc23)cn1")
"inactive"
>>> assigned_class("CC1COCCN1c1cc(C2(O)CC3CCC(C2)O3)c2cnn(-c3ccn[nH]3)c2n1 (stereo not given) + Cc1cnc(CNC(=O)c2c(=O)c3ccc(N4CCCN(C)CC4)nc3n3c2sc2ccccc23)cn1")
"active"
>>> assigned_class("C=CC(=O)N1CCN(c2nc(=O)n(-c3c(C)ccnc3C(C)C)c3nc(-c4c(O)cccc4F)c(F)cc23)C(C)C1 (stereo not given) + Cc1[nH]c2ccc(F)cc2c1-c1nc2c3cccnc3c3ncccc3c2[nH]1")
"inactive"
>>> assigned_class("CCCS(=O)(=O)Nc1ccc(F)c(C(=O)c2c[nH]c3ncc(-c4ccc(Cl)cc4)cc23)c1F + CN(C)c1ccc(Nc2c3ccc(NC(=O)CCN4CCCC4)cc3nc3cc(NC(=O)CCN4CCCC4)ccc23)cc1")
"inactive"

Query: recorded result category for CC(=O)O[C@H]1C(=O)[C@@]2(C)[C@H]([C@H](OC(=O)c3ccccc3)[C@]3(O)C[C@H](OC(=O)[C@H](O)[C@@H](NC(=O)c4ccccc4)c4ccccc4)C(C)=C1C3(C)C)[C@]1(OC(C)=O)CO[C@@H]1C[C@@H]2O + Cc1cnc(CNC(=O)c2c(=O)c3ccc(N4CCCN(C)CC4)nc3n3c2sc2ccccc23)cn1 in this test
active

Hi, sorry to bother you, what did the test record for CC(C)(O)C1CCC(Nc2ccc3ncc(-c4cccc(C(F)(F)F)c4)n3n2)CC1 (stereo not given) + Cc1[nH]c2ccc(F)cc2c1-c1nc2c3cccnc3c3ncccc3c2[nH]1 ?
inactive

Tell me the recorded outcome of this test for O=C(c1cc(Cc2n[nH]c(=O)c3ccccc23)ccc1F)N1CCN(C(=O)C2CC2)CC1 + CN(C)c1ccc(Nc2c3ccc(NC(=O)CCN4CCCC4)cc3nc3cc(NC(=O)CCN4CCCC4)ccc23)cc1 .
inactive

Given CC(=O)O[C@H]1C(=O)[C@@]2(C)[C@H]([C@H](OC(=O)c3ccccc3)[C@]3(O)C[C@H](OC(=O)[C@H](O)[C@@H](NC(=O)c4ccccc4)c4ccccc4)C(C)=C1C3(C)C)[C@]1(OC(C)=O)CO[C@@H]1C[C@@H]2O + Cc1[nH]c2ccc(F)cc2c1-c1nc2c3cccnc3c3ncccc3c2[nH]1 , state the outcome it received in this test.
inactive

Any idea what this test logged for CC1COCCN1c1cc(-c2ccnn2C)c2ccnc(-c3ccn[nH]3)c2n1 (stereo not given) + CN(C)c1ccc(Nc2c3ccc(NC(=O)CCN4CCCC4)cc3nc3cc(NC(=O)CCN4CCCC4)ccc23)cc1 ?
inactive

Give the logged outcome of this assay for the following compound: Nc1ccn(C2OC(CO)C(O)C2(F)F)c(=O)n1 (stereo not given) + Cc1cnc(CNC(=O)c2c(=O)c3ccc(N4CCCN(C)CC4)nc3n3c2sc2ccccc23)cn1
inactive

State the result this test recorded for Nc1ccn(C2OC(CO)C(O)C2(F)F)c(=O)n1 (stereo not given) + Cc1[nH]c2ccc(F)cc2c1-c1nc2c3cccnc3c3ncccc3c2[nH]1 .
inactive

Test call for this compound, please: C=CCn1c(=O)c2cnc(Nc3ccc(N4CCN(C)CC4)cc3)nc2n1-c1cccc(C(C)(C)O)n1 + CN(C)c1ccc(Nc2c3ccc(NC(=O)CCN4CCCC4)cc3nc3cc(NC(=O)CCN4CCCC4)ccc23)cc1
inactive

Tell me the assay call for O=C(NO)c1cnc(N2CCN(S(=O)(=O)c3ccc4ccccc4c3)CC2)nc1 + Cc1[nH]c2ccc(F)cc2c1-c1nc2c3cccnc3c3ncccc3c2[nH]1 please.
inactive

Please share the test call associated with COc1cc(C2c3cc4c(cc3C(OC3OC5COC(C)OC5C(O)C3O)C3COC(=O)C23)OCO4)cc(OC)c1O (stereo not given) + CN(C)c1ccc(Nc2c3ccc(NC(=O)CCN4CCCC4)cc3nc3cc(NC(=O)CCN4CCCC4)ccc23)cc1 .
inactive

Answer briefly: the call reported for O=c1[nH]cc(F)c(=O)[nH]1 + Cc1cnc(CNC(=O)c2c(=O)c3ccc(N4CCCN(C)CC4)nc3n3c2sc2ccccc23)cn1 in this assay.
inactive

Tell me the assay call for Cc1cccc(N(C)C(=O)C2C(O)CCN2c2nc(C)cc(C(F)(F)F)c2C#N)c1 (stereo not given) + Cc1cnc(CNC(=O)c2c(=O)c3ccc(N4CCCN(C)CC4)nc3n3c2sc2ccccc23)cn1 please.
inactive

Could you check what this test reported for O=c1[nH]cc(F)c(=O)[nH]1 + Cc1[nH]c2ccc(F)cc2c1-c1nc2c3cccnc3c3ncccc3c2[nH]1 ?
inactive

What did the test return for CC(=O)O[C@H]1C(=O)[C@@]2(C)[C@H]([C@H](OC(=O)c3ccccc3)[C@]3(O)C[C@H](OC(=O)[C@H](O)[C@@H](NC(=O)c4ccccc4)c4ccccc4)C(C)=C1C3(C)C)[C@]1(OC(C)=O)CO[C@@H]1C[C@@H]2O + CN(C)c1ccc(Nc2c3ccc(NC(=O)CCN4CCCC4)cc3nc3cc(NC(=O)CCN4CCCC4)ccc23)cc1 ?
inactive

Returns: the outcome recorded for CC1COCCN1c1cc(C2(S(C)(=N)=O)CC2)nc(-c2ccnc3[nH]ccc23)n1 (stereo not given) + CN(C)c1ccc(Nc2c3ccc(NC(=O)CCN4CCCC4)cc3nc3cc(NC(=O)CCN4CCCC4)ccc23)cc1 in this assay.
inactive
